These measurements were taken from the supplement of paper PMC8728848.

target_under_test: Gal(a1-3)[Gal(a1-4)]Gal(b1-4)GlcNAc
assay_overview: glycan array binding signal (z-score within array); higher = stronger binding
conditions: glycan notation: IUPAC condensed, linker removed
The sample as a whole holds a higher share of the strongest signals than the screen did.
Each entry below carries its recorded glycan array binding signal (z-score).

Below, each entry is followed by its recorded glycan array binding signal (z-score) result.
binder: pilr alpha (protein) MLYGVTQPKHLSASMGGSVEIPFSFYYPWELATAPDVRISWRRGHFHRQSFYSTRPPSIHKDYVNRLFLNWTEGQKSGFLRISNLQKQDQSVYFCRVELDTRSSGRQQWQSIEGTKLSIT
glycan array binding signal (z-score): 7.86
--
binder: HHL-1 (Homo sapiens), P07306 (protein) TKEYQDLQHLDNEESDHHQLRKGPPPPQPLLQRLCSGPRLLLLSLGLSLLLLVVVCVIGSQNSQLQEELRGLRETFSNFTASTEAQVKGLSTQGGNVGRKMKSLESQLEKQQKDLSEDHSSLLLHVKQFVSDLRSLSCQMAALQGNGSERTCCPVNWVEHERSCYWFSRSGKAWADADNYCRLEDAHLVVVTSWEEQKFVQHHIGPVNTWMGLHDQNGPWKWVDGTDYETGFKNWRPEQPDDWYGHGLGGGEDCAHFTDDGRWNDDVCQRPYRWVCETELDKASQEPPLL
glycan array binding signal (z-score): 0.667

**Q:** Could you share which glycan array binding signal (z-score) value was measured for DC-SIGN (Canis lupus), XP_853402 (protein) AGLCRPCPWKWELFQESCYFFSQTQNTWKESISACQNLRAQLVIINSTEEQKFLKSWNTRNNQRTWIGLSDHHNEGSWKWVDNTPLQLSFWKEGEPNNHGDEDCVELYSDGWNDNRCSTENFWICKKPSSPCPGPGLNDIFEAQKIEWHE ?
**A:** -0.15
